Quick reference: ε (60 sec.) -ε (0 sec.) of the listed items.
- experiment_summary: Photochromic properties of spiropyran compounds in methyl polymethacrylate film
- Format: physicochemical
- assay_context: absorbancy at max. absorption wavelength, irradiated 60 seconds minus not irradiated; 25° C.
- Experimental: The concentration of the above compound contained in the film was adjusted to be 1.0×10^-4 mol/g and the thickness was adjusted to be 0.1 mm. The photochromic film was exposed to the light of a mercury lamp SHL-100 produced by Toshiba Co. at a temperature of 25° C.+1° C. from a distance of 10 cm for 60 seconds so as to develop a color, in order to measure its photochromic properties. The photochromic properties were expressed as described below. Max. absorption wavelength (λmax) […]

>  <molecule>
CCCCC1=CC2(Oc3c(C#N)cccc31)C1C=CCC2CCC1 (centres unmarked)

>  <experimental_value>
0.5

$$$$
>  <molecule>
ClC12CC=CC(CCC1)C21C=C(Cc2ccccc2)c2c(cnc3ccccc23)O1 (centres unmarked)

>  <experimental_value>
0.9

$$$$
>  <molecule>
C1=CC2CCCC(C1)C21Oc2ccc3ccccc3c2C=C1CCc1ccccc1 (centres unmarked)

>  <experimental_value>
0.7

$$$$
>  <molecule>
CCC1=Cc2c(cnc3ccccc23)OC12C1C=CCC2CCC1 (centres unmarked)

>  <experimental_value>
0.5

$$$$

## Task GET /values?readout=ε (60 sec.) -ε (0 sec.)&item= C1=CC2CCCC(C1)C21Oc2ccc3ccccc3c2C(c2ccccc2)=C1CCc1ccccc1 (centres unmarked)
## Result 0.7
